Molecular target: ROCK2 (human) (UniProt O75116)
Sequence (O75116 whole entry, looked up): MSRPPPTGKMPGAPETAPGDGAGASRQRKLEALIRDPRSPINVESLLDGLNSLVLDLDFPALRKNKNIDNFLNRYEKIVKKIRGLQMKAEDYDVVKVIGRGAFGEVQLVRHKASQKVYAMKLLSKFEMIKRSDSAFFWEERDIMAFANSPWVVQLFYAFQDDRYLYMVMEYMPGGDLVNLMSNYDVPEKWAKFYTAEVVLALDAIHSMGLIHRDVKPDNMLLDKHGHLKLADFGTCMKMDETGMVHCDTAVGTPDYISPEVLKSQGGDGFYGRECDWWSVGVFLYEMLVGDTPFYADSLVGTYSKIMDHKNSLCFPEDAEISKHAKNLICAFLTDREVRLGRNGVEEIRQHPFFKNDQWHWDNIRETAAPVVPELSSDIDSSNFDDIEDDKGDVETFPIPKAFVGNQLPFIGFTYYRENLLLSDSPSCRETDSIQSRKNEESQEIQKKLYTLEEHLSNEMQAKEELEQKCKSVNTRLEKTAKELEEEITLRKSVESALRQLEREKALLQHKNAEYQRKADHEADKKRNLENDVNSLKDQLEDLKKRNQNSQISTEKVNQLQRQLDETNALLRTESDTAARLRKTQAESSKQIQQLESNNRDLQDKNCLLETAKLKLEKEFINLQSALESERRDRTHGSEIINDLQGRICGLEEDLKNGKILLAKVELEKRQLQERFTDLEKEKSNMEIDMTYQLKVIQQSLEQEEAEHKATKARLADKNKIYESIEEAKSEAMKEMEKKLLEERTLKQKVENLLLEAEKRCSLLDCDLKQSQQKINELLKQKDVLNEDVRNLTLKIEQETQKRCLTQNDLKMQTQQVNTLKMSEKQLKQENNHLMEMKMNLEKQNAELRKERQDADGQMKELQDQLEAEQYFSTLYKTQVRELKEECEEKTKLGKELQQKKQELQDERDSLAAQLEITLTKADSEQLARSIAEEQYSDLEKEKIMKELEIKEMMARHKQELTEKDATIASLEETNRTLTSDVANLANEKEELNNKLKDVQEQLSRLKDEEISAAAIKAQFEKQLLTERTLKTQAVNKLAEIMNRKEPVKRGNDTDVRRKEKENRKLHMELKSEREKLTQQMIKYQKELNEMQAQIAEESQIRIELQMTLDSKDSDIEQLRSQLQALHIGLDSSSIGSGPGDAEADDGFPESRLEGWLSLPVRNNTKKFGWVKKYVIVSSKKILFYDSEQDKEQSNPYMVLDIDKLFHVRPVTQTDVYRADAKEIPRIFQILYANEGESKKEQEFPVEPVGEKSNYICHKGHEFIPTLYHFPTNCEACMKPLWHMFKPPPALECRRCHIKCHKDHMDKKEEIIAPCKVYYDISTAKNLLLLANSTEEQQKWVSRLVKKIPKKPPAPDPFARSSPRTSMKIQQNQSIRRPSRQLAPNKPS
Experiment: KINOMEscan competition binding
Settings: compound 1.0 µM
Reported values of kinase still bound, per cent of control for individual entries

>  <smiles-notation>
CN(C)C/C=C/C(=O)Nc1cccc(C(=O)Nc2ccc(Nc3nccc(-c4cccnc4)n3)cc2)c1

>  <measurement-target>
ROCK2 (human) (UniProt O75116)

>  <kinase still bound, per cent of control / %>
16

$$$$
>  <smiles-notation>
CN(C)C/C=C/C(=O)Nc1cccc(C(=O)Nc2ccc(Nc3nccc(-c4c(-c5ccccc5)nn5ccccc45)n3)cc2)c1

>  <measurement-target>
ROCK2 (human) (UniProt O75116)

>  <kinase still bound, per cent of control / %>
75

$$$$
>  <smiles-notation>
CN(C)C/C=C/C(=O)Nc1cccc(C(=O)Nc2ccc(Nc3nccc(/C(C#N)=C4\Nc5ccccc5S4)n3)cc2)c1

>  <measurement-target>
ROCK2 (human) (UniProt O75116)

>  <kinase still bound, per cent of control / %>
100

$$$$
>  <smiles-notation>
Cc1cc(NC(=O)c2cccc(NC(=O)/C=C/CN(C)C)c2)ccc1Nc1nccc(-c2cccnc2)n1

>  <measurement-target>
ROCK2 (human) (UniProt O75116)

>  <kinase still bound, per cent of control / %>
49

$$$$

* * *

Target: MYLK3 (human)
Assay: KINOMEscan competition binding
Conditions: compound 1.0 µM
Reported values of kinase still bound, per cent of control for individual entries

>  <smiles-notation>
CN(C)C/C=C/C(=O)Nc1cccc(C(=O)Nc2ccc(Nc3nccc(/C(C#N)=C4\Nc5ccccc5S4)n3)cc2)c1

>  <measurement-target>
MYLK3 (human)

>  <kinase still bound, per cent of control (%)>
100

$$$$
>  <smiles-notation>
CN(C)C/C=C/C(=O)Nc1cccc(C(=O)Nc2ccc(Nc3nccc(-c4cccnc4)n3)cc2)c1

>  <measurement-target>
MYLK3 (human)

>  <kinase still bound, per cent of control (%)>
85

$$$$
>  <smiles-notation>
CN(C)C/C=C/C(=O)Nc1cccc(C(=O)Nc2ccc(Nc3nccc(-c4c(-c5ccccc5)nn5ccccc45)n3)cc2)c1

>  <measurement-target>
MYLK3 (human)

>  <kinase still bound, per cent of control (%)>
91

$$$$
>  <smiles-notation>
Cc1cc(NC(=O)c2cccc(NC(=O)/C=C/CN(C)C)c2)ccc1Nc1nccc(-c2cccnc2)n1

>  <measurement-target>
MYLK3 (human)

>  <kinase still bound, per cent of control (%)>
100

$$$$

* * *

Target: PRKD3 (human)
pKd: −log10 of the molar value.

>  <smiles-notation>
CN(C)C/C=C/C(=O)Nc1cccc(C(=O)Nc2ccc(Nc3nccc(-c4c(-c5ccccc5)nn5ccccc45)n3)cc2)c1

>  <pKd>
6.62

$$$$

* * *

Biological target: CAMKK1 (human) (UniProt Q8N5S9)
Sequence (Q8N5S9 whole entry, looked up): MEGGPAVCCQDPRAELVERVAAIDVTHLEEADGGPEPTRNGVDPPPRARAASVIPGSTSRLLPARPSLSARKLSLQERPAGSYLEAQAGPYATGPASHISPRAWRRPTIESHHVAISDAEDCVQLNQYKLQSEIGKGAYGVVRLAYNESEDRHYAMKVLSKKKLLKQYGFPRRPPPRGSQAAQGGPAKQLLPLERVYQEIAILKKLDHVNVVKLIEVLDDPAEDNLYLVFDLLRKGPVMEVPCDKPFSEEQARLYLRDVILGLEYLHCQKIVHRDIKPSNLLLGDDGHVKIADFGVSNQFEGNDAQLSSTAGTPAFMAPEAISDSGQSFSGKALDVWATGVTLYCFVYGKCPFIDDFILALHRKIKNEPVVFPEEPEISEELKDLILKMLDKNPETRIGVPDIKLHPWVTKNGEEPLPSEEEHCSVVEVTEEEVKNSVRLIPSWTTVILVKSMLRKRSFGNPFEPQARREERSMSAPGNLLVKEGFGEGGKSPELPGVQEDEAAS
Experiment: KINOMEscan competition binding
Settings: compound 1.0 µM
test-readout: kinase still bound, per cent of control (%)

>  <smiles-notation>
CN(C)C/C=C/C(=O)Nc1cccc(C(=O)Nc2ccc(Nc3nccc(-c4cccnc4)n3)cc2)c1

>  <test-readout>
kinase still bound, per cent of control

>  <unit-info>
%

>  <measured-value>
64

$$$$
>  <smiles-notation>
Cc1cc(NC(=O)c2cccc(NC(=O)/C=C/CN(C)C)c2)ccc1Nc1nccc(-c2cccnc2)n1

>  <test-readout>
kinase still bound, per cent of control

>  <unit-info>
%

>  <measured-value>
100

$$$$
>  <smiles-notation>
CN(C)C/C=C/C(=O)Nc1cccc(C(=O)Nc2ccc(Nc3nccc(-c4c(-c5ccccc5)nn5ccccc45)n3)cc2)c1

>  <test-readout>
kinase still bound, per cent of control

>  <unit-info>
%

>  <measured-value>
100

$$$$
>  <smiles-notation>
CN(C)C/C=C/C(=O)Nc1cccc(C(=O)Nc2ccc(Nc3nccc(/C(C#N)=C4\Nc5ccccc5S4)n3)cc2)c1

>  <test-readout>
kinase still bound, per cent of control

>  <unit-info>
%

>  <measured-value>
100

$$$$
